# Test system: KDM5A/B
# test summary: In vitro cell-based assay: tri-methyl H3K4 immuno-blotting in ZR-75-1 breast cancer cells
# applied conditions: 72 hours, read-out: Cellular IC50
pIC50: −log10 of the molar value. Structures can show the parent of a compound that is named as a salt.
Each entry below carries its recorded pIC50.

molecule="O=C(O)c1ccncc1Nc1nn(CCC(F)(F)F)c2ccc(Cl)cc12 [Example 35]" system=KDM5A/B measurement_kind=pIC50 result="6.00 to 7.00"
molecule="O=C(O)c1ccncc1Nc1nn(CCCO)c2ccc(F)cc12 [Example 42]" system=KDM5A/B measurement_kind=pIC50 result="5.00 to 6.00"
molecule="COCCn1nc(Nc2cnccc2C(=O)O)c2ccccc21 [Example 10]" system=KDM5A/B measurement_kind=pIC50 result="5.00 to 6.00"
molecule="Cc1ccc2c(c1)c(Nc1cnccc1C(=O)O)nn2CC1CC1 [Example 37]" system=KDM5A/B measurement_kind=pIC50 result="6.00 to 7.00"

Enquiry: Suppose we examine the molecule O=C(O)c1ccncc1Nc1nn([C@H]2CCOC2)c2ccc(F)cc12 [Example 66] ; what pIC50 value has been reported?
Return: 5.00 to 6.00

Enquiry: How about this molecule: O=C(O)c1ccncc1Nc1nn(CCC(F)(F)F)c2ccc(F)cc12 [Example 32]
Return: 6.00 to 7.00

Enquiry: How about this molecule: O=C(O)c1ccncc1Nc1nn(CCN2CCCC2)c2ccc(F)cc12 [Example 50]
Return: 5.00 to 6.00

Enquiry: How about this molecule: CCCn1nc(Nc2cnccc2C(=O)O)c2ccccc21 [Example 9]
Return: 6.00 to 7.00

Enquiry: How about this molecule: CCCn1nc(Nc2cnccc2C(=O)O)c2cc(Cl)ccc21 [Example 33]
Return: 6.00 to 7.00

Enquiry: How about this molecule: CCC(C)n1nc(Nc2cnccc2C(=O)O)c2cc(F)ccc21 (stereo not shown) [Example 26]
Return: 5.00 to 6.00

Enquiry: How about this molecule: O=C(O)c1ccncc1Nc1nn(CCC2CC2)c2ccc(F)cc12 [Example 31]
Return: 5.00 to 6.00

Enquiry: How about this molecule: O=C(O)c1ccncc1Nc1nn([C@H]2CCNC2)c2ccc(F)cc12 [Example 60]
Return: 5.00 to 6.00

Enquiry: How about this molecule: Cn1nc(Nc2cnccc2C(=O)O)c2ccccc21 [Example 1]
Return: 5.00 to 6.00

Enquiry: How about this molecule: CN(C)CCOCCn1nc(Nc2cnccc2C(=O)O)c2cc(F)ccc21 [Example 27, acetic acid salt]
Return: < 5.00

Enquiry: How about this molecule: Cn1nc(Nc2cnccc2C(=O)O)c2cc(C(F)(F)F)ccc21 [Example 14]
Return: 5.00 to 6.00

Enquiry: How about this molecule: O=C(O)c1ccncc1Nc1nn(CCc2ccccc2)c2ccc(F)cc12 [Example 19]
Return: < 5.00

---

# Test system: KDM5A/B
# test summary: In vitro cell-based assay: tri-methyl H3K4 immuno-blotting in ZR-75-1 breast cancer cells
# applied conditions: 72 hours, read-out: Cellular IC50
pIC50: −log10 of the molar value.
measurement kind: pIC50

molecule="O=C(O)c1ccncc1Nc1nn(CC2CCCC2)c2ccc(F)cc12 [Example 30]" system=KDM5A/B result="5.00 to 6.00"
molecule="O=C(O)c1ccncc1Nc1nn(CC2CC2)c2ccc(Cl)cc12 [Example 34]" system=KDM5A/B result="5.00 to 6.00"
molecule="O=C(O)c1ccncc1Nc1nn(CC2CCC2)c2ccc(F)cc12 [Example 28]" system=KDM5A/B result="6.00 to 7.00"
molecule="O=C(O)c1ccncc1Nc1nn(CC(F)(F)F)c2ccc(F)cc12 [Example 23]" system=KDM5A/B result="5.00 to 6.00"
molecule="O=C(O)c1ccncc1Nc1nn(C2CCOC2)c2ccc(F)cc12 (centres unmarked) [Example 54]" system=KDM5A/B result="5.00 to 6.00"
molecule="O=C(O)c1ccncc1Nc1nn([C@@H]2CCOC2)c2ccc(F)cc12 [Example 67]" system=KDM5A/B result="5.00 to 6.00"

Enquiry: Suppose we examine the molecule O=C(O)c1ccncc1Nc1cn(CCC(F)(F)F)c2ccc(Cl)cc12 [Example 59] ; what pIC50 value has been reported?
Return: 5.00 to 6.00

Enquiry: How about this molecule: CCCn1nc(Nc2cnccc2C(=O)O)c2cccc(F)c21 [Example 20]
Return: 5.00 to 6.00

Enquiry: How about this molecule: O=C(O)c1ccncc1Nc1nn(C2CCOC2)c2ccc(Cl)cc12 (centres unmarked) [Example 69]
Return: 5.00 to 6.00

Enquiry: How about this molecule: O=C(O)c1ccncc1Nc1nn(CCN2CCC(F)(F)CC2)c2ccc(F)cc12 [Example 73]
Return: 6.00 to 7.00

Enquiry: How about this molecule: O=C(O)c1ccncc1Nc1nn(CC2CCCO2)c2ccc(F)cc12 (centres unmarked) [Example 21]
Return: 5.00 to 6.00

Enquiry: How about this molecule: O=C(O)c1ccncc1Nc1nn(CC2CC2)c2ccc(F)cc12 [Example 16]
Return: 5.00 to 6.00

Enquiry: How about this molecule: O=C(O)c1ccncc1Nc1nn(C2CCCC2)c2ccc(F)cc12 [Example 29]
Return: 6.00 to 7.00

Enquiry: How about this molecule: Cc1ccc2c(c1)c(Nc1cnccc1C(=O)O)nn2C [Example 12]
Return: 6.00 to 7.00

Enquiry: How about this molecule: CCCn1nc(Nc2cnccc2C(=O)O)c2cc(F)ccc21 [Example 15]
Return: 5.00 to 6.00

Enquiry: How about this molecule: CN1CCOC(CCn2nc(Nc3cnccc3C(=O)O)c3cc(F)ccc32)C1 (centres unmarked) [Example 58]
Return: 5.00 to 6.00

---

# System: KDM5A/B
# test summary: In vitro cell-based assay: tri-methyl H3K4 immuno-blotting in ZR-75-1 breast cancer cells
# applied conditions: 72 hours, read-out: Cellular IC50
pIC50: −log10 of the molar value.
measurement kind: pIC50

Worked examples, 9 molecules total:
molecule="CCCn1nc(Nc2cnccc2C(=O)O)c2cccc(C)c21 [Example 45]" result="5.00 to 6.00"
molecule="O=C(O)c1ccncc1Nc1nn(CC(O)CO)c2ccc(F)cc12 (stereo not shown) [Example 48]" result="< 5.00"
molecule="Cc1ccc2c(Nc3cnccc3C(=O)O)nn(C)c2c1 [Example 5]" result="5.00 to 6.00"
molecule="Cn1nc(Nc2cnccc2C(=O)O)c2cc(F)ccc21 [Example 7]" result="5.00 to 6.00"
molecule="CCCCCn1nc(Nc2cnccc2C(=O)O)c2cc(F)ccc21 [Example 18]" result="5.00 to 6.00"
molecule="O=C(O)c1ccncc1Nc1nn(CCN2CCC(F)(F)C2)c2ccc(F)cc12 [Example 71]" result="5.00 to 6.00"
molecule="COCCCn1nc(Nc2cnccc2C(=O)O)c2cc(F)ccc21 [Example 17]" result="< 5.00"
molecule="CC(O)Cn1nc(Nc2cnccc2C(=O)O)c2cc(F)ccc21 (stereo not shown) [Example 51]" result="5.00 to 6.00"
molecule="O=C(O)c1ccncc1Nc1nn([C@@H]2CCNC2)c2ccc(F)cc12 [Example 61]" result="5.00 to 6.00"

Could you now consider this next molecule?
Enquiry: Suppose we examine the molecule Cn1nc(Nc2cnccc2C(=O)O)c2ccc(F)cc21 [Example 6] ; what pIC50 value has been reported?
Return: 5.00 to 6.00

---

# System: KDM5A/B
# test summary: In vitro cell-based assay: tri-methyl H3K4 immuno-blotting in ZR-75-1 breast cancer cells
# applied conditions: 72 hours, read-out: Cellular IC50
pIC50: −log10 of the molar value.
Each entry below carries its recorded pIC50.

compound_string=Cn1nc(Nc2cnccc2C(=O)O)c2cc(Cl)ccc21 system=KDM5A/B measurement_kind=pIC50 result="6.00 to 7.00"
compound_string=CC(C)Cn1nc(Nc2cnccc2C(=O)O)c2cc(F)ccc21 system=KDM5A/B measurement_kind=pIC50 result="5.00 to 6.00"
compound_string=CN(C)CCOCCn1nc(Nc2cnccc2C(=O)O)c2ccccc21 system=KDM5A/B measurement_kind=pIC50 result="< 5.00"

Could you now consider this next compound?
Enquiry: Suppose we examine the compound "COc1ccc2c(Nc3cnccc3C(=O)O)nn(C)c2c1" ; what pIC50 value has been reported?
Return: 5.00 to 6.00
